Reference for the values: PubChem BioAssay (NCATS)

# Measurement Parameters: Ebola virus entry assay, ratio channel readout
The source made the active and inactive calls. The call rests on the fitted dose curve.
Classes used: t (active), f (inactive)

| Compound | Category Label |
| --- | --- |
| C[C@]1(O)CC[C@H]2[C@@H]3CCC4=CC(=O)CC[C@]4(C)[C@@]3(F)[C@@H](O)C[C@@]21C | f |
| C#CCC(Cc1cnc2nc(N)nc(N)c2n1)c1ccc(C(=O)N[C@@H](CCC(=O)O)C(=O)O)cc1 (some centres undefined) | f |
| S=P(N1CC1)(N1CC1)N1CC1 | f |
| NCC[C@H](O)C(=O)N[C@@H]1C[C@H](N)[C@@H](O[C@H]2O[C@H](CN)[C@@H](O)[C@H](O)[C@@H]2O)[C@H](O)[C@@H]1O[C@H]1O[C@H](CO)[C@@H](O)[C@H](N)[C@@H]1O | f |
| O=P(O)(O)C(O)(Cn1ccnc1)P(=O)(O)O | f |
| CCC(=O)OC(OP(=O)(CCCCc1ccccc1)CC(=O)N1C[C@H](C2CCCCC2)C[C@H]1C(=O)O)C(C)C (some centres undefined) | f |
| CCS(=O)(=O)CCn1c([N+](=O)[O-])cnc1C | f |
| COCCCOc1ccnc(CS(=O)c2nc3ccccc3[nH]2)c1C (centres undefined) | f |
| CNCCC=C1c2ccccc2CCc2ccccc21 | t |
